// data source = PubChem BioAssay AID1963832

# Tested on: 885724-159-R-J1-PDC complex spheroid viability
# assay: Anticancer human tumor 885724-159-R-J1-PDC patient-derived pancreatic adenocarcinoma cell line growth inhibition [POLQ]
# experimental-parameters: second compound 10 µM; first compound 3.16 µM; hits give low values
# Description: Multicellular complex tumor spheroid response to Polymerase (POL) inhibitors (novobiocin, ART-558, RP6685) in combination with a variety of drugs and investigational agents in selected tumor cell lines The POL inhibitors (novobiocin, ART-558, and RP6685) were evaluated both individually and in combination with standard of care and investigational anticancer small molecules within a complex spheroid model of solid tumors. . […]
recorded-endpoint: viability, T/C (%)
Write down the numeric answer in % and omit the unit.

Reference set (2 entries):
[
  {
    "compound": "CCc1cc2c(N3CCc4c(cc(Cn5ccnc5)cc4-c4cn(C)nc4C(F)(F)F)C3=O)cc(C)nc2c(OC)n1 + Cc1cccc(N(C)C(=O)C2C(O)CCN2c2nc(C)cc(C(F)(F)F)c2C#N)c1",
    "target-of-assay": "885724-159-R-J1-PDC complex spheroid viability",
    "units-symbol": "%",
    "viability, T/C": 75.8
  },
  {
    "compound": "CCCS(=O)(=O)Nc1ccc(F)c(C(=O)c2c[nH]c3ncc(-c4ccc(Cl)cc4)cc23)c1F + Nc1ccc(C#CCN(C(=O)Cc2ncc(C(F)(F)F)cc2C(F)(F)F)c2ccc(F)cc2)nn1",
    "target-of-assay": "885724-159-R-J1-PDC complex spheroid viability",
    "units-symbol": "%",
    "viability, T/C": 135
  }
]

input: For O=C(c1cc(Cc2n[nH]c(=O)c3ccccc23)ccc1F)N1CCN(C(=O)C2CC2)CC1 + COC1C(OC(N)=O)C(O)C(Oc2ccc3c(O)c(NC(=O)c4ccc(O)c(CC=C(C)C)c4)c(=O)oc3c2C)OC1(C)C , what is its reported viability, T/C?
output: 91.1

###

# Test system: 885724-159-R-J1-PDC complex spheroid viability
# assay: Anticancer human tumor 885724-159-R-J1-PDC cell line growth inhibition [POLQ]; active means viability on the fitted dose curve at most 10% of control; inactive means the rest;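 further: spheroids exposed to compounds for 7 days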
# experimental-parameters: second compound 3.16 µM; first compound 3.16 µM
Outcomes you can answer with include only these: active, inactive

[
  {
    "molecule": "O=C(Nc1ccc(O)c(NS(=O)(=O)c2ccc(F)cc2)c1)c1ccc(-c2ccccc2)cc1 + Nc1ccc(C#CCN(C(=O)Cc2ncc(C(F)(F)F)cc2C(F)(F)F)c2ccc(F)cc2)nn1",
    "cat": "inactive"
  },
  {
    "molecule": "COc1cc(C2c3cc4c(cc3C(OC3OC5COC(C)OC5C(O)C3O)C3COC(=O)C23)OCO4)cc(OC)c1O (stereo not given) + Nc1ccc(C#CCN(C(=O)Cc2ncc(C(F)(F)F)cc2C(F)(F)F)c2ccc(F)cc2)nn1",
    "cat": "inactive"
  },
  {
    "molecule": "O=C(Nc1ccc(O)c(NS(=O)(=O)c2ccc(F)cc2)c1)c1ccc(-c2ccccc2)cc1 + COC1C(OC(N)=O)C(O)C(Oc2ccc3c(O)c(NC(=O)c4ccc(O)c(CC=C(C)C)c4)c(=O)oc3c2C)OC1(C)C",
    "cat": "inactive"
  },
  {
    "molecule": "CNCc1ccc(-c2[nH]c3cc(F)cc4c3c2CCNC4=O)cc1 + Nc1ccc(C#CCN(C(=O)Cc2ncc(C(F)(F)F)cc2C(F)(F)F)c2ccc(F)cc2)nn1",
    "cat": "inactive"
  }
]

input: Write down the call the test reported for this molecule. Item: CNCc1ccc(-c2[nH]c3cc(F)cc4c3c2CCNC4=O)cc1 + Cc1cccc(N(C)C(=O)C2C(O)CCN2c2nc(C)cc(C(F)(F)F)c2C#N)c1
output: inactive

input: Try CCc1cc2c(N3CCc4c(cc(Cn5ccnc5)cc4-c4cn(C)nc4C(F)(F)F)C3=O)ccnc2c(OC)n1 + Cc1cccc(N(C)C(=O)C2C(O)CCN2c2nc(C)cc(C(F)(F)F)c2C#N)c1 next.
output: inactive

input: Try COc1cccc2c1C(=O)c1c(O)c3c(c(O)c1C2=O)CC(O)(C(=O)CO)CC3OC1CC(N)C(O)C(C)O1 (stereo not given) + COC1C(OC(N)=O)C(O)C(Oc2ccc3c(O)c(NC(=O)c4ccc(O)c(CC=C(C)C)c4)c(=O)oc3c2C)OC1(C)C next.
output: active

input: Try COc1cccc2c1C(=O)c1c(O)c3c(c(O)c1C2=O)CC(O)(C(=O)CO)CC3OC1CC(N)C(O)C(C)O1 (stereo not given) + Nc1ccc(C#CCN(C(=O)Cc2ncc(C(F)(F)F)cc2C(F)(F)F)c2ccc(F)cc2)nn1 next.
output: active

input: Try C#Cc1c(F)ccc2cc(O)cc(-c3ncc4c(N5CC6CCC(C5)N6)nc(OCC56CCCN5CC(F)C6)nc4c3F)c12 (stereo not given) + Nc1ccc(C#CCN(C(=O)Cc2ncc(C(F)(F)F)cc2C(F)(F)F)c2ccc(F)cc2)nn1 next.
output: inactive

input: Try CC1COCCN1c1cc(-c2ccnn2C)c2ccnc(-c3ccn[nH]3)c2n1 (stereo not given) + Cc1cccc(N(C)C(=O)C2C(O)CCN2c2nc(C)cc(C(F)(F)F)c2C#N)c1 next.
output: inactive
